Assay: qHTS assay to identify small molecule antagonists of the constitutive androstane receptor (CAR) signaling pathway - cell viability counter screen (AID 1224837); note: nearly all actives have a fitted effect of over 45% in size
Conditions: HepG2-CYP2B6-hCAR viability, CellTiter-Fluor, 23 h, co-treated with 50 nM CITCO; series mostly up to 92.4 µM
Procedure: National Center for Advancing Translational Sciences [NCATS] NIH Chemical Genomics Center [NCGC] U.S. Environmental Protection Agency [EPA] National Institutes of Environmental Health Sciences [NIEHS] National Toxicology Program [NTP] […] A double-stable (hCAR and CYP2B6-2.2kb) transfected cell line, derived from human hepatoma (HepG2) cells, was utilized for the duration of the quantitative high-throughput screens. […] The fluorescence intensity in the plates was then measured using a ViewLux plate reader.
Inconclusive results are not listed. Calls of active or inactive are those of the source. Calls come from the whole dose curve; as a rule, active = well fitted cell-killing curve with a large enough effect in the repeat runs; inconclusive = weak or mixed curves, or effect the other way; inactive = flat fitted curve, though single readings scatter.
ENDPOINT NAME: outcome

| MOLECULE | outcome |
| --- | --- |
| SCc1ccccc1 | inactive |
| OCCCl | inactive |
| CC(C)(c1ccccc1)c1cc(-n2nc3ccccc3n2)c(O)c(C(C)(C)c2ccccc2)c1 | inactive |
| C=C(C)C(=O)OCCCCOC(=O)C(=C)C | inactive |
| O=S(=O)(Cl)Cl | inactive |
| OCC1CO1 (stereo not drawn) | inactive |
| CC(C)(C)CC(C)(C)c1ccc(O)cc1 | inactive |
| CCCC1CCCCN1 (stereo not drawn) | inactive |
| ClCc1ccccc1Cl | inactive |
| CCCN(CCC)c1c([N+](=O)[O-])cc(C(C)C)cc1[N+](=O)[O-] | inactive |

Dear colleague, could you send me outcome for each of the items below? Thanks.
1. COc1ccc(C(=O)c2c(C)n(CCN3CCOCC3)c3ccccc23)cc1
2. CC(C)c1ccc(NC(=O)N(C)C)cc1

[out]
1. inactive
2. inactive

[in] Query (molecule): COc1ccccc1N1CCNCC1 ; field requested: outcome
[out] inactive
